Tested on: Meloidogyne hapla J2
Assay: proportion of mobile M. hapla J2 relative to DMSO control (fraction of DMSO control); higher = more viable, less nematicidal, active = 0.7 or less
Settings: 60 µM; 5 days; temperature: 20 °C
If the reported proportion of mobile M. hapla J2 equals or exceeds 0.9, assign satisfied. If not, assign not satisfied.

molecule	group_label
O=C(Nc1ccccc1-c1nc(-c2cccnc2)no1)c1cccc(Cl)c1	not satisfied
Cn1c(SCc2ccc(Cl)cc2)nnc1-c1ccco1	satisfied
O=C(CSc1nnc(-c2ccc(Br)cc2)o1)N1CCCCCC1	not satisfied
CCc1ccc(OCc2nc(-c3cccc(OC)c3)no2)cc1	not satisfied
CCOC(=O)c1ccc(NC(=O)c2ccccc2-c2nc(-c3cccc(C)c3)no2)cc1	not satisfied
Cc1cc(Cl)ccc1OCc1nc(-c2ccncc2)no1	satisfied

Inquiry: // inclusive: proportion of mobile M. hapla J2 at least 0.9? input: COc1ccc(-c2noc(C34CC5CC(CC(C5)C3)C4)n2)cc1
Reply text: satisfied

Inquiry: // inclusive: proportion of mobile M. hapla J2 at least 0.9? input: c1ccc(COc2cccc(-c3nc(-c4ccccn4)no3)c2)cc1
Reply text: satisfied

Inquiry: // inclusive: proportion of mobile M. hapla J2 at least 0.9? input: Cc1ccc(-c2noc(C3CCCCC3)n2)cc1
Reply text: satisfied

---

System: Ditylenchus dipsaci
Test: proportion of mobile D. dipsaci (mixed stage) relative to DMSO control (fraction of DMSO control); higher = more viable, less nematicidal, active = 0.86 or less; extreme values may be limits of the assay
Conditions: 60 µM; 5 days; temperature: 20 °C
Each entry below carries its reported proportion of mobile D. dipsaci.

Previously resolved entries follow.
cpd_smiles	metric_name	observed_value
CC(C)Oc1cccc(-c2nc(-c3ccccn3)no2)c1	proportion of mobile D. dipsaci	1 (inactive)
COc1nc(C)ccc1-c1noc(-c2ccc(Cl)cc2)n1	proportion of mobile D. dipsaci	1 (inactive)
COc1ccc(-c2nnc(SCC(=O)Nc3ccc(C)cc3Br)o2)cc1	proportion of mobile D. dipsaci	1 (inactive)
CCNC(=O)c1ccccc1-c1nc(-c2ccc(OC)cc2)no1	proportion of mobile D. dipsaci	1 (inactive)
O=C(CSc1nnc(-c2ccccc2)o1)OCc1ccccc1	proportion of mobile D. dipsaci	1 (inactive)

Inquiry: Consider the compound shown here: COc1cccc(-c2nc(-c3ccc(C)cc3)no2)c1 What is its recorded proportion of mobile D. dipsaci?
Reply text: 1 (inactive)

Inquiry: Consider the compound shown here: COc1ccccc1-c1nnc(SCc2ccc(C#N)cc2)o1 What is its recorded proportion of mobile D. dipsaci?
Reply text: 1 (inactive)

Inquiry: Consider the compound shown here: COc1ccc(Cl)cc1NC(=O)CSc1nnc(-c2ccc(Br)cc2)o1 What is its recorded proportion of mobile D. dipsaci?
Reply text: 1 (inactive)

Inquiry: Consider the compound shown here: Cc1cc(OCc2nc(-c3ccncc3)no2)ccc1Br What is its recorded proportion of mobile D. dipsaci?
Reply text: 1 (inactive)

Inquiry: Consider the compound shown here: Brc1ccc(-c2noc(-c3ccco3)n2)o1 What is its recorded proportion of mobile D. dipsaci?
Reply text: 1 (inactive)

Inquiry: Consider the compound shown here: COc1ccccc1NC(=O)c1ccccc1-c1nc(-c2ccc(Cl)cc2)no1 What is its recorded proportion of mobile D. dipsaci?
Reply text: 1 (inactive)

Inquiry: Consider the compound shown here: Fc1ccc(-c2noc(-c3ccc(F)cc3)n2)cc1 What is its recorded proportion of mobile D. dipsaci?
Reply text: 1 (inactive)

Inquiry: Consider the compound shown here: Cc1ccccc1OCc1nc(-c2ccc(NC(=O)c3ccc(Br)o3)cc2)no1 What is its recorded proportion of mobile D. dipsaci?
Reply text: 1 (inactive)

Inquiry: Consider the compound shown here: CCNC(=O)c1ccccc1-c1nc(-c2ccccc2)no1 What is its recorded proportion of mobile D. dipsaci?
Reply text: 1 (inactive)

Inquiry: Consider the compound shown here: c1ccc2c(-c3nc(-c4ccncc4)no3)cccc2c1 What is its recorded proportion of mobile D. dipsaci?
Reply text: 1 (inactive)

Inquiry: Consider the compound shown here: Cc1cccc(-c2noc(COc3ccc(C)c(C)c3)n2)c1 What is its recorded proportion of mobile D. dipsaci?
Reply text: 1 (inactive)

Inquiry: Consider the compound shown here: Cc1ccc(-c2noc(-c3ccc(C)cc3Cl)n2)cc1 What is its recorded proportion of mobile D. dipsaci?
Reply text: 1 (inactive)
